Listing of entries alongside the reported pIC50.
targetOrSystem: UniProt:Q04912
testDescription: RON (human) AlphaScreen kinase assay, Km of ATP
Type: biochemical
cond: AlphaScreen, Km of ATP; read-out: RON biochemical IC50
pIC50: −log10 of the molar value.

Recorded pIC50, per entry:
C[C@@H](Oc1c(N)ncc2c(C3=CCN(c4c(N)c(=O)c4=O)CC3)coc12)c1c(Cl)ccc(F)c1Cl | 5.30 to 6.30
C[C@@H](Oc1c(N)ncc2c(C3=CCCN(C(N)=O)C3)coc12)c1c(Cl)ccc(F)c1Cl | 5.30 to 6.30
Cn1c(Cc2ccccc2)ncc(-c2ccc(COc3c(N)ncc4ccoc34)c(F)c2)c1=O | 4.70 to 5.30
C[C@@H](Oc1c(N)ncc2c(-c3cccc(NS(=O)(=O)CCN(C)C)c3)coc12)c1c(Cl)ccc(F)c1Cl | 5.30 to 6.30
C[C@@H](Oc1c(N)ncc2c(C3=CCN(C(=O)CN4CCCC4)CC3)coc12)c1c(Cl)ccc(F)c1Cl | > 6.30
COc1ccc(-c2coc3c(O[C@H](C)c4c(Cl)ccc(F)c4Cl)c(N)ncc23)cc1 | 5.30 to 6.30

Lookup result for CC(Oc1c(N)ncc2c(-c3cnn(C4CCNCC4)c3)coc12)c1cccc(-c2cnn(C)c2)c1 (stereo not shown) ; measured pIC50: 5.30 to 6.30

###

targetOrSystem: RON (human) (Homo sapiens, UniProt Q04912)
Sequence (Q04912 25-1400): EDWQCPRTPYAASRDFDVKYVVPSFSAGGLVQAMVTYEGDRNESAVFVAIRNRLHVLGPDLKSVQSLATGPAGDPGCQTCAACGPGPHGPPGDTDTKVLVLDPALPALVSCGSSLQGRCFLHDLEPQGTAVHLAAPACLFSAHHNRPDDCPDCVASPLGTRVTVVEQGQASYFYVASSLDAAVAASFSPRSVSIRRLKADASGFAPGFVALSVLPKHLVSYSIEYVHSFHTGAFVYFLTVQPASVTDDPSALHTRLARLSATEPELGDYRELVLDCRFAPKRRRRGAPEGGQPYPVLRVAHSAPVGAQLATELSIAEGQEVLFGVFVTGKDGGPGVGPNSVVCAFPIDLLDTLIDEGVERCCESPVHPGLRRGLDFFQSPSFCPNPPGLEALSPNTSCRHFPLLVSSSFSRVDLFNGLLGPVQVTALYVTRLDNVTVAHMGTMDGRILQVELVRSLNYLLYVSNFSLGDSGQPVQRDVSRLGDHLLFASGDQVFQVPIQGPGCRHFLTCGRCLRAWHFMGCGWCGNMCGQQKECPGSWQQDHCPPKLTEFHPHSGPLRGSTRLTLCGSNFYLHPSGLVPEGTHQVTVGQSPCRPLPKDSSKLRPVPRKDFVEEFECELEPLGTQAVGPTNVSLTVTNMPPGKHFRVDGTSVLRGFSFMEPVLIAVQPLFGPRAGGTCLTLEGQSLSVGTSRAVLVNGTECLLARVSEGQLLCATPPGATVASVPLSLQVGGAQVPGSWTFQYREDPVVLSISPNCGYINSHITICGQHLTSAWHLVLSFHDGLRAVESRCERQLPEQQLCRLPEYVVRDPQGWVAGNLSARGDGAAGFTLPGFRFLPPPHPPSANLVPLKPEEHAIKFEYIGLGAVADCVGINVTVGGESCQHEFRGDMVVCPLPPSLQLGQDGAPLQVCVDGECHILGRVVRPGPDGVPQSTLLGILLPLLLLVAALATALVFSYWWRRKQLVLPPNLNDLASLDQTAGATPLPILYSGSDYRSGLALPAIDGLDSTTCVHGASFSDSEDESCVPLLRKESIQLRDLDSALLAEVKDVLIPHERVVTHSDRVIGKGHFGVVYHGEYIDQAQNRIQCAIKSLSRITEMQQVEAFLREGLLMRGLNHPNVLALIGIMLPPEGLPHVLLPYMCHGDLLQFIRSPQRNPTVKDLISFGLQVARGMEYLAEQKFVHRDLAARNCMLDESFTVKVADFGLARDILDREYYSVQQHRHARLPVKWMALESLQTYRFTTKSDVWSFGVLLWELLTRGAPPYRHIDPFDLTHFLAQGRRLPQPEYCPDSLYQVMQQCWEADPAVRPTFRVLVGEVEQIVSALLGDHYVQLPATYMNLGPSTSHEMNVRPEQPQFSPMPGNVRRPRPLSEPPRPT
testDescription: RON (human) AlphaScreen kinase assay, Km of ATP
Assay type: biochemical
cond: AlphaScreen, Km of ATP; read-out: RON biochemical IC50
pIC50: −log10 of the molar value.
readoutLabel: pIC50

Recorded pIC50, per entry:
C[C@@H]1CN(C(=O)N2CC=C(c3coc4c(O[C@H](C)c5c(Cl)ccc(F)c5Cl)c(N)ncc34)CC2)C[C@H](C)N1 (relative stereo) | > 6.30
C[C@@H](Oc1c(N)ncc2c(C(=O)NC3CCN(C)CC3)coc12)c1c(Cl)ccc(F)c1Cl | 5.30 to 6.30
C[C@@H](Oc1c(N)ncc2c(C3=CCN(C(=O)c4ccn[nH]4)CC3)coc12)c1c(Cl)ccc(F)c1Cl | 5.30 to 6.30
Cc1ccsc1-c1coc2c(O[C@H](C)c3c(Cl)ccc(F)c3Cl)c(N)ncc12 | 4.70 to 5.30
CCN1CCC(n2cc(-c3coc4c(O[C@H](C)c5c(Cl)ccc(F)c5Cl)c(N)ncc34)cn2)CC1 | 5.30 to 6.30

Lookup result for CC(Cc1ccc(Cl)c(Cl)c1)Oc1c(N)ncc2c(-c3cnn(C4CCNCC4)c3)coc12 (centres unmarked) ; measured pIC50: > 6.30

Lookup result for C[C@@H]1CN(C(=O)c2ccc(-c3coc4c(O[C@H](C)c5c(Cl)ccc(F)c5Cl)c(N)ncc34)cc2)C[C@H](C)N1 (relative stereo) ; measured pIC50: > 6.30

Lookup result for `C[C@@H](Oc1c(N)ncc2c(-c3ccc[nH]3)coc12)c1c(Cl)ccc(F)c1Cl` ; measured pIC50: 5.30 to 6.30

###

targetOrSystem: MET (human) (Homo sapiens, UniProt P08581)
Sequence (P08581 25-1390): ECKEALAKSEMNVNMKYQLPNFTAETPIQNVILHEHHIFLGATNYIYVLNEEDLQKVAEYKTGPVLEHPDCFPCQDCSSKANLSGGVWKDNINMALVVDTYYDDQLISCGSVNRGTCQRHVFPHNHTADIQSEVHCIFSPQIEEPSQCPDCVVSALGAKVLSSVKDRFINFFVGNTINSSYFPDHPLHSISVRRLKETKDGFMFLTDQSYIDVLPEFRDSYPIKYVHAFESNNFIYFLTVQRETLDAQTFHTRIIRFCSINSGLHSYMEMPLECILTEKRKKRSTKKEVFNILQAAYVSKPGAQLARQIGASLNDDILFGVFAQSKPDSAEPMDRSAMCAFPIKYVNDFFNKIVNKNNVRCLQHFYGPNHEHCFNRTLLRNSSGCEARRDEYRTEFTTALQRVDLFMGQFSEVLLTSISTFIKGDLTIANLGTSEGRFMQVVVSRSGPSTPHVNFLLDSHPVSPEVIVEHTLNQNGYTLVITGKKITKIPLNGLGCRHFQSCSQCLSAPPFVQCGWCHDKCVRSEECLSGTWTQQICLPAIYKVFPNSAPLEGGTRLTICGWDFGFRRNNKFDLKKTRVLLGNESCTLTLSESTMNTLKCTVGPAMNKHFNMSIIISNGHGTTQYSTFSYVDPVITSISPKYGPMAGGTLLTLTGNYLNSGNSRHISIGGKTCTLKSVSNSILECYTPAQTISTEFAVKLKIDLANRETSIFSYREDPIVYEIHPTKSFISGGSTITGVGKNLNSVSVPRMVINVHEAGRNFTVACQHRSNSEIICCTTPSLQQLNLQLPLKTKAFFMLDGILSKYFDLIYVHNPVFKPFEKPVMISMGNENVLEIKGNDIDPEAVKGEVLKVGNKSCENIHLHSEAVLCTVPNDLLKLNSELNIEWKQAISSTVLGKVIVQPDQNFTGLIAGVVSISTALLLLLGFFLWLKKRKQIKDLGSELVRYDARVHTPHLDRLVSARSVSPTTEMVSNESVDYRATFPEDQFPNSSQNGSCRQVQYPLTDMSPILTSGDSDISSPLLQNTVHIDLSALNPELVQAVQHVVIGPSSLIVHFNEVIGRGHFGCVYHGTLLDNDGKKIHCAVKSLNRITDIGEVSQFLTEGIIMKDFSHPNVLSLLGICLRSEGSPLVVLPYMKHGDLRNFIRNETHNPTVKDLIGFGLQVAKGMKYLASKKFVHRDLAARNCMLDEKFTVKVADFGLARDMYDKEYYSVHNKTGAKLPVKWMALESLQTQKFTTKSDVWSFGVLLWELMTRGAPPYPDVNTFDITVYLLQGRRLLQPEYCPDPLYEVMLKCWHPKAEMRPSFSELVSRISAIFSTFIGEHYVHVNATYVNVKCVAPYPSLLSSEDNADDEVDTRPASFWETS
testDescription: MET (human) AlphaScreen kinase assay, Km of ATP
Type: biochemical
cond: AlphaScreen, Km of ATP; read-out: Met biochemical IC50
readoutLabel: IC50

C[C@@H](Oc1c(N)ncc2c(C3=CCN(C(=O)[C@H](O)c4ccccc4)CC3)coc12)c1c(Cl)ccc(F)c1Cl | 500 to 5000 nM
C[C@@H](Oc1c(N)ncc2c(-c3ccc4cc[nH]c4c3)coc12)c1c(Cl)ccc(F)c1Cl | 500 to 5000 nM
Cc1ccnc(C)c1C(C)Oc1c(N)ncc2c(-c3cnn(C4CCNCC4)c3)coc12 (stereo not drawn) | < 500 nM
C[C@@H](Oc1c(N)ncc2c(C(=O)NCCN)coc12)c1c(Cl)ccc(F)c1Cl | < 500 nM
C[C@H](Cc1ccccc1)Oc1c(N)ncc2c(-c3cnn(C4CCNCC4)c3)coc12 | 500 to 5000 nM

Lookup result for `CCCOC(=O)N1CC=C(c2coc3c(O[C@H](C)c4c(Cl)ccc(F)c4Cl)c(N)ncc23)CC1` ; measured IC50: 500 to 5000 nM

Lookup result for `C[C@@H](Oc1c(N)ncc2c(C(=O)NCCN(C)C)coc12)c1c(Cl)ccc(F)c1Cl` ; measured IC50: < 500 nM

Lookup result for `Cn1c(Cc2ccccc2)ncc(-c2ccc(COc3c(N)ncc4ccoc34)cc2)c1=O` ; measured IC50: > 20000 nM

Lookup result for `C[C@@H](Oc1c(N)ncc2c(C3=CCN(C(=O)N4CCN(C(C)(C)C)CC4)CC3)coc12)c1c(Cl)ccc(F)c1Cl` ; measured IC50: < 500 nM

Lookup result for `C[C@@H](Oc1c(N)ncc2c(C3=CCN(C(=O)Oc4ccccc4)CC3)coc12)c1c(Cl)ccc(F)c1Cl` ; measured IC50: < 500 nM

Lookup result for `C[C@@H](Oc1c(N)ncc2c(-c3ccc(C(=O)N4CCN(CCO)CC4)cc3)coc12)c1c(Cl)ccc(F)c1Cl` ; measured IC50: < 500 nM

Lookup result for `C[C@@H](Oc1c(N)ncc2c(C3=CCN(C(=O)[C@H](N)Cc4ccccc4)CC3)coc12)c1c(Cl)ccc(F)c1Cl` ; measured IC50: < 500 nM

Lookup result for `C[C@@H](Oc1c(N)ncc2c(C3=CCN(C(=O)C4(O)CC4)CC3)coc12)c1c(Cl)ccc(F)c1Cl` ; measured IC50: 500 to 5000 nM

Lookup result for `C[C@@H](Oc1c(N)ncc2c(-c3cccc(NS(C)(=O)=O)c3)coc12)c1c(Cl)ccc(F)c1Cl` ; measured IC50: < 500 nM

Lookup result for `C[C@@H](Oc1c(N)ncc2c(-c3ccc(CN4CCCCC4)s3)coc12)c1c(Cl)ccc(F)c1Cl` ; measured IC50: < 500 nM
